meta.source: patent US5672715A

Tested on: Yellow Foxtail
Experiment: pre-emergence herbicide test
Format: in vivo
Conditions: Setaria, 4.5 lb/A, read-out: % plant inhibition
PROPERTY_LABEL: inhibition at 5043.82 g/ha (%)
Provide the reading as a plain figure in %.

inhibition at 5043.82 g/ha reported for this compound Cc1c(-c2cc(O)c(Cl)cc2F)nn(C)c1C(F)(F)F : 100

Sure, the documented inhibition at 5043.82 g/ha for Cc1c(-c2cc(F)ccc2F)nn(C)c1C(F)(F)F is 35

Kindly note the recorded inhibition at 5043.82 g/ha for Cc1c(-c2cc(F)c([N+](=O)[O-])cc2F)nn(C)c1C(F)(F)F , which is 80

The compound listed as Cn1nc(-c2cc(F)ccc2F)c(C=O)c1C(F)(F)F shows inhibition at 5043.82 g/ha equal to 20

----------
Test system: Cocklebur
Assay: pre-emergence herbicide test
Format: in vivo
Details: Xanthium strumarium, pre-emergence, 0.25 lb/A; read-out: % plant inhibition
PROPERTY_LABEL: inhibition at 280.212 g/ha (%)
Dear colleague, please return just the value in %, with no unit written.

Note to self: inhibition at 280.212 g/ha recorded for CCOC(=O)COC(=O)c1cc(-c2nn(C)c(C(F)(F)F)c2C)c(F)cc1Cl was 10

Record Cc1c(-c2cc(C(=O)OC3CCOC3)c(Cl)cc2F)nn(C)c1C(F)(F)F (stereo not shown) , field inhibition at 280.212 g/ha: 35

inhibition at 280.212 g/ha recorded for this compound, CCOC(=O)C=C(COC(=O)c1cc(-c2nn(C)c(C(F)(F)F)c2C)c(F)cc1Cl)OC , is 0

Item: Cc1c(-c2cc(C(=O)OCSC#N)c(Cl)cc2F)nn(C)c1C(F)(F)F | inhibition at 280.212 g/ha: 0

----------
Test system: Downy Brome
Assay: pre-emergence herbicide test
Format: in vivo
Settings: Bromus tectorum, pre-emergence, 0.25 lb/A; read-out: % plant inhibition
Method: Topsoil was placed in an aluminum pan and compacted to a depth of 1.3 to 1.6 cm from the top of the pan. On the top of the soil was placed a predetermined number of seeds of each of several monocotyledonous and dicotyledonous annual plant species and/or vegetative propagules of various perennial plant species. […] Approximately 14 days after seeding and treating, the pans were observed and the results (% inhibition) were recorded. […]
Record yes (1) whenever inhibition at 280.212 g/ha is at 20% or higher; record no (0) when lower.

In plain terms: is recorded inhibition at 280.212 g/ha at least 20% for COC(=O)c1cc(-c2nn(C)c(C(F)(F)F)c2C)c(F)cc1Cl ? yes (1)

# check: inhibition at 280.212 g/ha of C#CCOC(=O)c1cc(-c2nn(C)c(C(F)(F)F)c2C)c(F)cc1Cl is greater than or equal to 20% no (0)

Textbook exercise: given the entry Cc1c(-c2cc(C(=O)OCC(=O)OC(C)C)c(Cl)cc2F)nn(C)c1C(F)(F)F , state whether its inhibition at 280.212 g/ha is greater than or equal to 20%. no (0)

Could you tell me if the measured inhibition at 280.212 g/ha of COC(=O)CSCc1cc(-c2nn(C)c(C(F)(F)F)c2C)c(F)cc1Cl reaches 20% or more? no (0)

Kindly determine if inhibition at 280.212 g/ha recorded for Cc1c(-c2ccc(Cl)cc2)nn(C)c1C(F)(F)F is above or exactly 20%. no (0)

Hi, just wondering whether Cn1nc(-c2cc(C(=O)O)c(Cl)cc2F)c(C=O)c1C(F)(F)F shows inhibition at 280.212 g/ha of 20% or higher. no (0)

Is reported inhibition at 280.212 g/ha greater than or equal to 20% here: Cc1c(-c2cc(CO)c(Cl)cc2F)nn(C)c1C(F)(F)F no (0)

Hello, I need to know if CCCCCOC(=O)c1cc(-c2nn(C)c(C(F)(F)F)c2C)c(F)cc1Cl has measured inhibition at 280.212 g/ha not below 20%. Thanks! yes (1)

----------
Test system: Yellow Foxtail
Experiment: post-emergence herbicide test
Type: in vivo
Conditions: Setaria, 0.0071 lb/A, read-out: % plant inhibition
PROPERTY_LABEL: inhibition at 7.95803 g/ha (%)
Numeric answer only, unit % assumed.

Data point: COc1cc(-c2nn(C)c(C(F)(F)F)c2C)c(F)cc1Cl ; inhibition at 7.95803 g/ha = 0

Lab note: Cc1c(-c2cc(F)c([N+](=O)[O-])cc2F)nn(C)c1C(F)(F)F gave inhibition at 7.95803 g/ha of 0

GET /value?item= Cc1c(-c2cc(OCC(=O)OC(C)C)c(Cl)cc2F)nn(C)c1C(F)(F)F &field=inhibition at 7.95803 g/ha returns 0

Record C#CCOc1cc(-c2nn(C)c(C(F)(F)F)c2C)c(F)cc1Cl , field inhibition at 7.95803 g/ha: 65

Field inhibition at 7.95803 g/ha (entry COc1cc(-c2nn(C)c(C(F)(F)F)c2C)c(F)cc1[N+](=O)[O-] ) reads 0

----------
Test system: Giant Foxtail
Test: post-emergence herbicide test
Format: in vivo
Conditions: Setaria faberi, post-emergence, 0.25 lb/A; read-out: % plant inhibition
PROPERTY_LABEL: inhibition at 280.212 g/ha (%)
The answer is to be given in %; state only the numeric part.

response.value for Cc1c(-c2cc(CO)c(Cl)cc2F)nn(C)c1C(F)(F)F (field: inhibition at 280.212 g/ha) = 10

GET /value?item= CCCCCOC(=O)c1cc(-c2nn(C)c(C(F)(F)F)c2C)c(F)cc1Cl &field=inhibition at 280.212 g/ha returns 99

Lab note: measured inhibition at 280.212 g/ha of CCOC(=O)c1cc(-c2nn(C)c(C(F)(F)F)c2C)c(F)cc1Cl was 45

Looking up Cc1c(-c2cc(CS(C)(=O)=O)c(Cl)cc2F)nn(C)c1C(F)(F)F , I found its inhibition at 280.212 g/ha recorded as 25

So, CC(C)OC(=O)c1cc(-c2nn(C)c(C(F)(F)F)c2C(F)F)c(F)cc1Cl ? Its inhibition at 280.212 g/ha was 95

----------
System: Morning Glory
Assay: post-emergence herbicide test
Type: in vivo
Conditions: Ipomoea, post-emergence, 0.25 lb/A; read-out: % plant inhibition
Returns one of True or False; True when inhibition at 280.212 g/ha is >= 80%.

Determine whether this compound has inhibition at 280.212 g/ha no lower than 80%: Cc1c(-c2cc(OCC(=O)OC(C)C)c(Cl)cc2F)nn(C)c1C(F)(F)F True

Could you tell me if the measured inhibition at 280.212 g/ha of CCOC(=O)C(C)OC(=O)c1cc(-c2nn(C)c(C(F)(F)F)c2C)c(F)cc1Cl (stereo not drawn) reaches 80% or more? True

// inclusive: inhibition at 280.212 g/ha at least 80%? input: CC(C)OC(=O)c1cc(-c2nn(C)c(C(F)(F)F)c2C(F)F)c(F)cc1Cl True

Quick check, inhibition at 280.212 g/ha >= 80%? Cc1cc(-c2nn(C)c(C(F)(F)F)c2C)c(O)cc1Cl False

Hi, just wondering whether CCCOC(=O)c1cc(-c2nn(C)c(C(F)(F)F)c2C)c(F)cc1Cl shows inhibition at 280.212 g/ha of 80% or higher. False

Would you say Cc1c(-c2cc(C(=O)OCC(=O)OC(C)C)c(Cl)cc2F)nn(C)c1C(F)(F)F shows inhibition at 280.212 g/ha at minimum 80%? False

Determine whether measured inhibition at 280.212 g/ha meets or exceeds 80% for Cc1c(-c2cc(C(=O)OCC3CNCCO3)c(Cl)cc2F)nn(C)c1C(F)(F)F (stereo not drawn) False

Check if inhibition at 280.212 g/ha >= 80% (inclusive). Item: COC(=O)c1cc(-c2nn(C)c(C(F)(F)F)c2C)c(F)cc1Cl False

----------
Tested on: Soybean
Assay: pre-emergence herbicide test
Format: in vivo
Settings: Glycine max, pre-emergence, 0.1785 lb/A; read-out: % plant inhibition
Give inhibition at 200.072 g/ha for every item shown.
Answer with the number, then the unit.

The value of inhibition at 200.072 g/ha measured for the compound COc1cc(-c2nn(C)c(C(F)(F)F)c2C)c(F)cc1Cl [Compound 37] turned out to be 50%

Looking up C#CCOc1cc(-c2nn(C)c(C(F)(F)F)c2C)c(F)cc1Cl [Compound 39] , I see its inhibition at 200.072 g/ha listed as 95%

Noted for Cc1c(-c2cc(O)c(Cl)cc2F)nn(C)c1C(F)(F)F [Compound 40] : its inhibition at 200.072 g/ha reads 0%

get_value(item= COc1cc(-c2nn(C)c(C(F)(F)F)c2C)c(F)cc1[N+](=O)[O-] [Compound 36] , readout=inhibition at 200.072 g/ha) returns 0%

inhibition at 200.072 g/ha measured on Cc1c(-c2cc(F)c([N+](=O)[O-])cc2F)nn(C)c1C(F)(F)F [Compound 35] = 0%

So for Cn1nc(-c2cc(F)ccc2F)c(C=O)c1C(F)(F)F [Compound 34] , the logged inhibition at 200.072 g/ha turned out to be 0%
